- MEASUREMENT TARGET: mouse melanocortin 3 receptor (mouse, UniProt P33033 1-323)
- Sequence (P33033 whole entry): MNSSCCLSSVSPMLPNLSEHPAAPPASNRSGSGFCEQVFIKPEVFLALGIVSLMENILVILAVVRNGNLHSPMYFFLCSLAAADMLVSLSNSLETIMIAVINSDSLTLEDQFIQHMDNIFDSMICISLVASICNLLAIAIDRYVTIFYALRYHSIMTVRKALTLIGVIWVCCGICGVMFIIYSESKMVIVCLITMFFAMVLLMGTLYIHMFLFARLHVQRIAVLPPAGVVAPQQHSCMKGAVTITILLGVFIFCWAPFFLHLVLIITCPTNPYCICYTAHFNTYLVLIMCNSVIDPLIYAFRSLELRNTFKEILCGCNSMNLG
- PROCEDURE TEXT: cell-based or functional assay
Non-standard residues stand in square brackets, D forms with d. Dap = NC[C@H](N)C(=O)O

- BINDER: "cyclo(PH[dF]RW[Dap]A[dP]) (also: TFA salt) [MDE6-5-2c, c[Pro-His-DPhe-Arg-Trp-Dap-Ala-DPro]]"
  UNIT: "nM"
  EC50 (nM), agonist, cAMP AlphaScreen: 40
- BINDER: "cyclo(PH[dF]RWNA[dP]) (also: TFA salt) [MDE6-3-2c, c[Pro-His-DPhe-Arg-Trp-Asn-Ala-DPro]]"
  UNIT: "nM"
  EC50 (nM), agonist, cAMP AlphaScreen: 300
- BINDER: "cyclo(PH[dF]RWNAF[dP]) (also: TFA salt) [MDE5-149-2c, c[Pro-His-DPhe-Arg-Trp-Asn-Ala-Phe-DPro]]"
  UNIT: "nM"
  EC50 (nM), agonist, cAMP AlphaScreen: 32
- BINDER: "cyclo(PH[dF]RW[Dap]AF[dP]) (also: TFA salt) [MDE5-151-2c, c[Pro-His-DPhe-Arg-Trp-Dap-Ala-Phe-DPro]]"
  UNIT: "nM"
  EC50 (nM), agonist, cAMP AlphaScreen: 260
